# tested-on: human CD33 on primary human dendritic cells (human, UniProt P20138 18-364)
# Sequence (P20138 18-364): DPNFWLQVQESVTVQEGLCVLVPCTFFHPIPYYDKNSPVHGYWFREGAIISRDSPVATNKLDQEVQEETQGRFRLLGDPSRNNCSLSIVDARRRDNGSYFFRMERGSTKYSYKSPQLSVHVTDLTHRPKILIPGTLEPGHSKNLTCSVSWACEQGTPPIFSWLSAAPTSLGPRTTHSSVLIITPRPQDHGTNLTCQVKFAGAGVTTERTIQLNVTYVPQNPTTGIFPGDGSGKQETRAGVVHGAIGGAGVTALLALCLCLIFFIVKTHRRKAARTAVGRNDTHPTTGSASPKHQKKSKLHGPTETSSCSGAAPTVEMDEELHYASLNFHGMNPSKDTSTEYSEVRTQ
# assay-protocol: cell-based or functional assay
reported-property: Receptor downregulation, (EC50) (pM)

-- ask Could you please provide reported Receptor downregulation, (EC50) (pM) for anti-CD33 antibody 6C7H47 (antibody, V domains shown, VH/VL only) VH: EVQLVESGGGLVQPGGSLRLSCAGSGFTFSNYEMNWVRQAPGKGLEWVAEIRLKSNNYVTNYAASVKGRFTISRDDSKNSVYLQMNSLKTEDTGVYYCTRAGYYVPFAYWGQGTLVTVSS VL: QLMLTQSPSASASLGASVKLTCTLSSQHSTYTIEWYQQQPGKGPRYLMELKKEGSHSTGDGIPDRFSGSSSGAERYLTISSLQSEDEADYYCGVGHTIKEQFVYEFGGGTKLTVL ? Thanks!
-- reply 59 pM
